As shown below, each of these compounds has a reported EC50 value.
Target: SWI/SNF-related matrix-associated actin-dependent regulator of chromatin subfamily A member 2 (Homo sapiens)
Sequence (P51531 whole entry): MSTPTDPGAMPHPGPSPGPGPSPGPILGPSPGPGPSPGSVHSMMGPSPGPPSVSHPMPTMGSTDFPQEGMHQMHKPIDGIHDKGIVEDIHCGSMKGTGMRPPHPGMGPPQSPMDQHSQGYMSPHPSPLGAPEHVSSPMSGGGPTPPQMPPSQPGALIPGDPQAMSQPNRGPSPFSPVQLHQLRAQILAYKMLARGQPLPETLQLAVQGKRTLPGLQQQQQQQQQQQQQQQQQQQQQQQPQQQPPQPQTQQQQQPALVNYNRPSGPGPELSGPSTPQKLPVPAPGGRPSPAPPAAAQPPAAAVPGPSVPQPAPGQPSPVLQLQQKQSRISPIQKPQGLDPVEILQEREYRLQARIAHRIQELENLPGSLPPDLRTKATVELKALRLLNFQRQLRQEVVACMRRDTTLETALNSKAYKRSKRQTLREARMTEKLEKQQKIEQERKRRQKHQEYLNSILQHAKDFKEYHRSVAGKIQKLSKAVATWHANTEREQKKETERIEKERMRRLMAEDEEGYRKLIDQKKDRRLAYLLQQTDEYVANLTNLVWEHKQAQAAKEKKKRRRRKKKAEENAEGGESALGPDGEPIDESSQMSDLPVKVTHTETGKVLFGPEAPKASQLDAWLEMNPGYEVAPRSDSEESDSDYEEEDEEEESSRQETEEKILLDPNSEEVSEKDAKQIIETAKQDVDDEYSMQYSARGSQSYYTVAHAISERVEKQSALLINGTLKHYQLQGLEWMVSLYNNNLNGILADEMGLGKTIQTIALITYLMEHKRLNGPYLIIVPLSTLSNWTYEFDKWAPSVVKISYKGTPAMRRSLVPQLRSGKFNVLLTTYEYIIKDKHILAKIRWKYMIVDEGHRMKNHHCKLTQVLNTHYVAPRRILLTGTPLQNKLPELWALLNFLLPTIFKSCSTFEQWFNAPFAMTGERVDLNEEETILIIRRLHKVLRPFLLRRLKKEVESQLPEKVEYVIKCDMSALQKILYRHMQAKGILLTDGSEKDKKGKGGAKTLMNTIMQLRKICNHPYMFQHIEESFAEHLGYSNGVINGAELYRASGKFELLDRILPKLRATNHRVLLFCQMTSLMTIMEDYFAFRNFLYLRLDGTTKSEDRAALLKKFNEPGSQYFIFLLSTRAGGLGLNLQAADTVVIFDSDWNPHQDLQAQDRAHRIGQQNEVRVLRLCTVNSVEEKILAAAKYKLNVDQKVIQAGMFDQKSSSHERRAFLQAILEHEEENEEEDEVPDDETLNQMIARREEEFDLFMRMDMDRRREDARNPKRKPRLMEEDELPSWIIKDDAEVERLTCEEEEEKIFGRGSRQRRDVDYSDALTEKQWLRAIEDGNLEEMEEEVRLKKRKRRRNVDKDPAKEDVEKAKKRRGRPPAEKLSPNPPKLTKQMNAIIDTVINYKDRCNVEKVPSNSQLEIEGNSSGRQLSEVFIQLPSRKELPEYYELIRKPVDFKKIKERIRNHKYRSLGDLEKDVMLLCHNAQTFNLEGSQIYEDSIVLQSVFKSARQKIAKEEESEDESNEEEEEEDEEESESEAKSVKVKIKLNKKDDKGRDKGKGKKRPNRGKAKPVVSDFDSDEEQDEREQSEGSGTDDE
Experiment: Luminescence-based cell-based high throughput dose response assay to identify activators of the function of SWI/SNF related, matrix associated, actin dependent regulator of chromatin, subfamily a, member 2 (SMARCA2, BRM).
Format: functional
Active and inactive are the calls of the source. Cut-off read from the data, not from the text of the source: active = EC50 of 10 µM or less and inactive = more.

                                   compound                result
0           Cc1ccc(/C=C/C(=O)NC2CCCCCCC2)o1  > 91.1 µM (inactive)
1    CC(=O)NCCc1ccc(C(=O)COC(=O)c2cccs2)cc1  > 91.1 µM (inactive)
2  CCN(CC)CCNc1ccc(CO)c2oc3cc(Cl)ccc3c(=O)c12  > 91.2 µM (inactive)

Moving on to another compound below.
Looking up C=C1C(=O)[C@]23C[C@H]1CCC2[C@]1(C)C(=O)CC[C@@](C)(C(=O)O)C1C[C@@H]3O (some centres undefined) , I see its EC50 listed as > 91.2 µM (inactive)

Hey, just so you know, these numbers are from ChEMBL document CHEMBL1201862.
